- Test Target: HumRadA2 (humanised, monomeric RadA; surrogate for RAD51) (Pyrococcus furiosus)
- Experiment Summary: Isothermal titration calorimetry of peptides against HumRadA2
- Type: binding
- Stated Conditions: ITC, 25 °C; ΔS derived from ΔG by subtracting ΔH
Residues, ends and D or L forms follow the SMILES beside them.
Readout Kind: TΔS

| Compound | TΔS |
| --- | --- |
| CC(=O)N[C@@H](Cc1ccccc1)C(=O)N[C@@H](Cc1c[nH]cn1)C(=O)N[C@@H](C)C(=O)N[C@@H](C)C(N)=O [FHAA] (Ac-FHAA-NH2) | -3.636 kcal/mol |

Summary for this compound, CC(=O)N[C@@H](Cc1ccccc1)C(=O)N[C@@H](Cc1c[nH]cn1)C(=O)N[C@H](C(=O)N[C@@H](C)C(N)=O)[C@@H](C)O [FHTA] (Ac-FHTA-NH2) : TΔS is 2.453 kcal/mol

Summary for this compound, CC(=O)N[C@@H](Cc1c[nH]c2ccccc12)C(=O)N[C@@H](Cc1c[nH]cn1)C(=O)N1CCC[C@H]1C(=O)N[C@@H](C)C(N)=O [WHPA] (Ac-WHPA-NH2) : TΔS is -2.044 kcal/mol

Summary for this compound, CC(=O)N[C@@H](Cc1c[nH]c2ccccc12)C(=O)N[C@@H](Cc1c[nH]cn1)C(=O)N[C@H](C(=O)N[C@@H](C)C(N)=O)[C@@H](C)O [WHTA] (Ac-WHTA-NH2) : TΔS is 2.727 kcal/mol

Summary for this compound, CC(=O)N[C@@H](Cc1ccccc1)C(=O)N[C@@H](Cc1c[nH]cn1)C(=O)N[C@H](C(=O)NCC(N)=O)[C@@H](C)O [FHTG] (Ac-FHTG-NH2) : TΔS is -1.702 kcal/mol

Summary for this compound, CC(=O)N[C@@H](Cc1ccccc1)C(=O)N[C@@H](Cc1c[nH]cn1)C(=O)N1CCC[C@H]1C(=O)N[C@@H](C)C(N)=O [FHPA] (Ac-FHPA-NH2) : TΔS is 3.218 kcal/mol

Summary for this compound, CC(=O)N[C@@H](Cc1ccccc1)C(=O)N[C@@H](CC(N)=O)C(=O)N[C@H](C(=O)N[C@@H](C)C(N)=O)[C@@H](C)O [FNTA] (Ac-FNTA-NH2) : TΔS is 0.346 kcal/mol

Each recorded value in this set is attributed to paper PMC4855620.
